assayed.system: 14-3-3β (Homo sapiens, UniProt P31946)
Construct: cDNAs encoding other full-length 14-3-3 isoforms β, τ, η, and σ were obtained as codon-optimized
Sequence (P31946 whole entry, canonical isoform): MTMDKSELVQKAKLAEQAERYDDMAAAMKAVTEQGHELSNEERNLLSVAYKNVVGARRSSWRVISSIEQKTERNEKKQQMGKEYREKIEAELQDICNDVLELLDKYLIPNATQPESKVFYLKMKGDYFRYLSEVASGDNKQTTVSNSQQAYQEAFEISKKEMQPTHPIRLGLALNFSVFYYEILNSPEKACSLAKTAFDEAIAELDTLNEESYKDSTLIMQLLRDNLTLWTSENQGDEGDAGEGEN
protocol.description: biochemical
Starred links: 1 amine or outer side, 2 acyl side, 3 side chain; linkers in the order of their positions; H or OH if unused. Non-standard residues stand in square brackets, D forms with d. Residues, ends and D or L forms follow the SMILES beside them. *: point of attachment. X1 = O=C(CCCC[C@@H]1SC[C@@H]2NC(=O)N[C@@H]21)NCCCOCCOCCOCCCN*; pT = C[C@@H](OP(=O)(O)O)[C@H](N)C(=O)O; Suc = O=C(CCC(=O)[*:2])[*:1]
Property: pKd; scope: individual compounds
Lab note — pKd values are minus log10 of concentrations in M.

Below, each entry is followed by its recorded pKd result.
• CC(C)C[C@H](NC(=O)[C@H](CCC(N)=O)NC(=O)[C@@H](NC(=O)[C@H](CCC(=O)O)NC(=O)[C@H](CCCNC(=N)N)NC(=O)[C@H](CCCNC(=N)N)NC(=O)[C@@H](NC(=O)[C@H](CCCNC(=N)N)NC(=O)[C@H](CO)NC(=O)[C@H](CO)NC(=O)CCC(=O)NCCCOCCOCCOCCCNC(=O)CCCC[C@@H]1SC[C@@H]2NC(=O)N[C@@H]21)[C@@H](C)O)[C@@H](C)OP(=O)(O)O)C(=O)O = 3.80
• CC(C)[C@H](NC(=O)[C@H](CCC(=O)O)NC(=O)[C@@H](NC(=O)[C@H](CCC(=O)O)NC(=O)[C@H](CCCNC(=N)N)NC(=O)[C@H](CCCNC(=N)N)NC(=O)[C@H](CCCNC(=N)N)NC(=O)[C@@H]1CCCN1C(=O)[C@H](CCCCN)NC(=O)[C@H](CO)NC(=O)CCC(=O)NCCCOCCOCCOCCCNC(=O)CCCC[C@@H]1SC[C@@H]2NC(=O)N[C@@H]21)[C@@H](C)OP(=O)(O)O)C(=O)O [pHPV35E6T-6R] ({X1-Suc}-SKPRRRE[pT]EV-OH) = 3.75
• CC(C)C[C@H](NC(=O)[C@H](C)NC(=O)[C@@H](NC(=O)[C@H](CCC(=O)O)NC(=O)[C@H](CCCNC(=N)N)NC(=O)[C@H](CCCNC(=N)N)NC(=O)[C@H](CCCNC(=N)N)NC(=O)[C@H](CO)NC(=O)[C@H](CCCNC(=N)N)NC(=O)[C@H](CO)NC(=O)CCC(=O)NCCCOCCOCCOCCCNC(=O)CCCC[C@@H]1SC[C@@H]2NC(=O)N[C@@H]21)[C@@H](C)OP(=O)(O)O)C(=O)O [pHPV33E6] ({X1-Suc}-SRSRRRE[pT]AL-OH) = 5.39

// below: pKd requested for another compound
Query string: pKd of CC(C)[C@H](NC(=O)[C@H](C)NC(=O)[C@@H](NC(=O)[C@H](CCC(=O)O)NC(=O)[C@H](CCCNC(=N)N)NC(=O)[C@H](CCCNC(=N)N)NC(=O)[C@@H](NC(=O)[C@@H]1CCCN1C(=O)[C@H](CCCCN)NC(=O)[C@H](CO)NC(=O)CCC(=O)NCCCOCCOCCOCCCNC(=O)CCCC[C@@H]1SC[C@@H]2NC(=O)N[C@@H]21)[C@@H](C)O)[C@@H](C)OP(=O)(O)O)C(=O)O [pHPV35E6E-1A] ({X1-Suc}-SKPTRRE[pT]AV-OH) on 14-3-3β (Homo sapiens, UniProt P31946)?
Result string: 4.69

---

assayed.system: 14-3-3σ (Homo sapiens, UniProt P31947)
Construct: cDNAs encoding other full-length 14-3-3 isoforms β, τ, η, and σ were obtained as codon-optimized
Sequence (P31947 whole entry, canonical isoform): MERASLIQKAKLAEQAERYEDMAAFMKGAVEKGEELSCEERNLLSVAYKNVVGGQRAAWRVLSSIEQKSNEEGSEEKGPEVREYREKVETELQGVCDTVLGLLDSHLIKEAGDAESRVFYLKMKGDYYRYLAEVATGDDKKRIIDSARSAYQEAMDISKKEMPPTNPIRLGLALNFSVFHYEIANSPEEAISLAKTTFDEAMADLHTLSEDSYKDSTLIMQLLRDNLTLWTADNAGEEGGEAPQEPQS
protocol.description: biochemical
Starred links: 1 amine or outer side, 2 acyl side, 3 side chain; linkers in the order of their positions; H or OH if unused. Non-standard residues stand in square brackets, D forms with d. Residues, ends and D or L forms follow the SMILES beside them. *: point of attachment. X1 = O=C(CCCC[C@@H]1SC[C@@H]2NC(=O)N[C@@H]21)NCCCOCCOCCOCCCN*; pT = C[C@@H](OP(=O)(O)O)[C@H](N)C(=O)O; Suc = O=C(CCC(=O)[*:2])[*:1]
quantity: Kd

Query string: I'd like to know its Kd. The compound in question is CC(C)[C@H](NC(=O)[C@H](CCC(=O)O)NC(=O)[C@@H](NC(=O)[C@H](CCC(=O)O)NC(=O)[C@H](CCCNC(=N)N)NC(=O)[C@H](CCCNC(=N)N)NC(=O)[C@@H](NC(=O)[C@@H]1CCCN1C(=O)[C@H](CCCCN)NC(=O)[C@H](CO)NC(=O)CCC(=O)NCCCOCCOCCOCCCNC(=O)CCCC[C@@H]1SC[C@@H]2NC(=O)N[C@@H]21)[C@@H](C)O)[C@@H](C)OP(=O)(O)O)C(=O)O [pHPV35E6] ({X1-Suc}-SKPTRRE[pT]EV-OH)
Result string: > 300 µM

---

assayed.system: 14-3-3η (Homo sapiens)
Construct: cDNAs encoding other full-length 14-3-3 isoforms β, τ, η, and σ were obtained as codon-optimized
Sequence (Q04917 whole entry, canonical isoform): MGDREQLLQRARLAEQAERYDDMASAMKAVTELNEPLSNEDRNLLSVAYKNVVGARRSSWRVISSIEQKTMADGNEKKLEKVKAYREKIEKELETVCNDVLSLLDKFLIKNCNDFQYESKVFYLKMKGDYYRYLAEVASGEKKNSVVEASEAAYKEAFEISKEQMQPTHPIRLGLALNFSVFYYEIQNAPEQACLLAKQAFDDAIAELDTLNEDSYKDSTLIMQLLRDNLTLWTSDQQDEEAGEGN
protocol.description: biochemical
Starred links: 1 amine or outer side, 2 acyl side, 3 side chain; linkers in the order of their positions; H or OH if unused. Non-standard residues stand in square brackets, D forms with d. Residues, ends and D or L forms follow the SMILES beside them. *: point of attachment. X1 = O=C(CCCC[C@@H]1SC[C@@H]2NC(=O)N[C@@H]21)NCCCOCCOCCOCCCN*; pT = C[C@@H](OP(=O)(O)O)[C@H](N)C(=O)O; Suc = O=C(CCC(=O)[*:2])[*:1]
quantity: Kd
Express the reported value numerically, then name its unit.

Query string: Give its Kd value. Item: CC(C)[C@H](NC(=O)[C@H](C)NC(=O)[C@@H](NC(=O)[C@H](CCC(=O)O)NC(=O)[C@H](CCCNC(=N)N)NC(=O)[C@H](CCCNC(=N)N)NC(=O)[C@H](CCCNC(=N)N)NC(=O)[C@@H]1CCCN1C(=O)[C@H](CCCCN)NC(=O)[C@H](CO)NC(=O)CCC(=O)NCCCOCCOCCOCCCNC(=O)CCCC[C@@H]1SC[C@@H]2NC(=O)N[C@@H]21)[C@@H](C)OP(=O)(O)O)C(=O)O [pHPV35E6T-6R, E-1A] ({X1-Suc}-SKPRRRE[pT]AV-OH)
Result string: 4.8 µM

---

assayed.system: seven human 14-3-3 isoforms
protocol.description: Affinities averaged or compared across the 14-3-3 family (ΔΔGav, KD ratios, affinity maps)
Type: binding
condition.set: Figure 4 panel c; 14-3-3γ
Description: […] (gray background). The color scale is either based on affinity values or on KD ratios. √ denotes affinities weaker than the limit of quantitation of the experimental assays. b Same map as in a, normalized to the strongest 14-3-3-binding motif. […]
Starred links: 1 amine or outer side, 2 acyl side, 3 side chain; linkers in the order of their positions; H or OH if unused. Non-standard residues stand in square brackets, D forms with d. Residues, ends and D or L forms follow the SMILES beside them. *: point of attachment. X1 = O=C(CCCC[C@@H]1SC[C@@H]2NC(=O)N[C@@H]21)NCCCOCCOCCOCCCN*; pT = C[C@@H](OP(=O)(O)O)[C@H](N)C(=O)O; Suc = O=C(CCC(=O)[*:2])[*:1]
quantity: KD ratios, compared to 14-3-3γ, 14-3-3γ
No unit in the answer, please; the number alone is enough.

Query string: Form field: KD ratios, compared to 14-3-3γ, 14-3-3γ recorded for CC(C)[C@H](NC(=O)[C@H](C)NC(=O)[C@@H](NC(=O)[C@H](CCC(=O)O)NC(=O)[C@H](CCCNC(=N)N)NC(=O)[C@H](CCCNC(=N)N)NC(=O)[C@@H](NC(=O)[C@@H]1CCCN1C(=O)[C@H](CCCCN)NC(=O)[C@H](CO)NC(=O)CCC(=O)NCCCOCCOCCOCCCNC(=O)CCCC[C@@H]1SC[C@@H]2NC(=O)N[C@@H]21)[C@@H](C)O)[C@@H](C)OP(=O)(O)O)C(=O)O [pHPV35E6E-1A] ({X1-Suc}-SKPTRRE[pT]AV-OH) with seven human 14-3-3 isoforms (enter value)
Result string: 1.00

---

assayed.system: 14-3-3ζ (Homo sapiens, UniProt P63104)
Construct: Plasmids containing the cDNAs of the full-length 14-3-3 isoforms ε, γ, and ζ were received
Sequence (P63104 whole entry, canonical isoform): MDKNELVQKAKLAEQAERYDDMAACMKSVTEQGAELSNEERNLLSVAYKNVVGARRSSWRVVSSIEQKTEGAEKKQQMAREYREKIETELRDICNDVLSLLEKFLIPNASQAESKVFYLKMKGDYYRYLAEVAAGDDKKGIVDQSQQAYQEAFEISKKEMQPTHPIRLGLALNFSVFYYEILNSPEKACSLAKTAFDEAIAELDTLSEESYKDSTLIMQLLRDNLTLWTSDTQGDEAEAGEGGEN
protocol.description: biochemical
Starred links: 1 amine or outer side, 2 acyl side, 3 side chain; linkers in the order of their positions; H or OH if unused. Non-standard residues stand in square brackets, D forms with d. Residues, ends and D or L forms follow the SMILES beside them. *: point of attachment. X1 = O=C(CCCC[C@@H]1SC[C@@H]2NC(=O)N[C@@H]21)NCCCOCCOCCOCCCN*; pT = C[C@@H](OP(=O)(O)O)[C@H](N)C(=O)O; Suc = O=C(CCC(=O)[*:2])[*:1]
quantity: Kd (µM)
Please state the figure in µM; there is no need to write the unit.

* CC(C)[C@H](NC(=O)[C@H](C)NC(=O)[C@@H](NC(=O)[C@H](CCC(=O)O)NC(=O)[C@H](CCCNC(=N)N)NC(=O)[C@H](CCCNC(=N)N)NC(=O)[C@H](CCCNC(=N)N)NC(=O)[C@@H]1CCCN1C(=O)[C@H](CCCCN)NC(=O)[C@H](CO)NC(=O)CCC(=O)NCCCOCCOCCOCCCNC(=O)CCCC[C@@H]1SC[C@@H]2NC(=O)N[C@@H]21)[C@@H](C)OP(=O)(O)O)C(=O)O [pHPV35E6T-6R, E-1A] ({X1-Suc}-SKPRRRE[pT]AV-OH) | 7.3
* CC(C)C[C@H](NC(=O)[C@H](CCC(N)=O)NC(=O)[C@@H](NC(=O)[C@H](CCC(=O)O)NC(=O)[C@H](CCCNC(=N)N)NC(=O)[C@H](CCCNC(=N)N)NC(=O)[C@@H](NC(=O)[C@H](CCCNC(=N)N)NC(=O)[C@H](CO)NC(=O)[C@H](CO)NC(=O)CCC(=O)NCCCOCCOCCOCCCNC(=O)CCCC[C@@H]1SC[C@@H]2NC(=O)N[C@@H]21)[C@@H](C)O)[C@@H](C)OP(=O)(O)O)C(=O)O [pHPV16E6] | 73.6

// switching to the query molecule
Query string: Can you look up the measured Kd of CC(C)[C@H](NC(=O)[C@H](C)NC(=O)[C@@H](NC(=O)[C@H](CCC(=O)O)NC(=O)[C@H](CCCNC(=N)N)NC(=O)[C@H](CCCNC(=N)N)NC(=O)[C@@H](NC(=O)[C@@H]1CCCN1C(=O)[C@H](CCCCN)NC(=O)[C@H](CO)NC(=O)CCC(=O)NCCCOCCOCCOCCCNC(=O)CCCC[C@@H]1SC[C@@H]2NC(=O)N[C@@H]21)[C@@H](C)O)[C@@H](C)OP(=O)(O)O)C(=O)O [pHPV35E6E-1A] ({X1-Suc}-SKPTRRE[pT]AV-OH) for me?
Result string: 17.6
